assayTarget: T1, human MSLN-R1-his protein (human, UniProt Q13421 296-390)
T1 construct: also called hMSLN-R1-his; human MSLN-R1 protein; not shown: His tag
T1 chain: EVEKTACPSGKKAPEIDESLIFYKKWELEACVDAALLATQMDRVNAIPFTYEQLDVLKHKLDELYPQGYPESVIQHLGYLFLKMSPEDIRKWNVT
protocolSummary: ELISA, coated antigen; antibody 0.001 nM
Each entry below lists one item and its recorded OD450 value.
Reply with just the number.

[
  {
    "binder": "S009-F1.57.1 human-murine chimeric antibody (antibody, human IgG1, kappa, V domains shown, Chimeric IgG1/kappa) VH: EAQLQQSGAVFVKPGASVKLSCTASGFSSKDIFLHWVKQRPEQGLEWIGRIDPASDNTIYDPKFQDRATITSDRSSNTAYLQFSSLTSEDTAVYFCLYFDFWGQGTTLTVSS VL: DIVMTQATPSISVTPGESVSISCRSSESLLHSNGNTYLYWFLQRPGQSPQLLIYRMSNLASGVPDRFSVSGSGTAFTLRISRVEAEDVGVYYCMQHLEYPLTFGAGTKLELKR",
    "OD450": 0.04
  }
]

// S009-F1.56.1 human-murine chimeric antibody (antibody, human IgG1, kappa, V domains shown, Chimeric IgG1/kappa) VH: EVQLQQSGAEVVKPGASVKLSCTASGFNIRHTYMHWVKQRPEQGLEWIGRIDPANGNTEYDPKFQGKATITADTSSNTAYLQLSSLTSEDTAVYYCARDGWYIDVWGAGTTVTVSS VL: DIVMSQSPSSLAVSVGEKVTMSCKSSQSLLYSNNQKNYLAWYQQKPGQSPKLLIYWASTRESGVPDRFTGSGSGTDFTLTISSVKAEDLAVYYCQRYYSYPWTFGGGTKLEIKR : OD450 value = 0.05

This collection of values is drawn from patent US20250250357A1.
